experiment: Aqueous solubility of compound in PBS at pH 7.4; format: physicochemical
value type: solubility kinetic (µM)
Answers are plain numbers, in µM.

Below: 2 compounds and their reported solubility kinetic.
O=C(NCC1CCOC2(CCN(C(=O)C3(c4ccccc4)CCCC3)CC2)C1)c1cccnc1 (centres undefined) : 90
O=C(N1CCC2(CC1)CC(CNS(=O)(=O)C1CC1)CCO2)C1(c2ccccc2)CCCC1 (centres undefined) : 180

What the record says about CS(=O)(=O)NCC1CCOC2(CCN(C(=O)C3(c4ccccc4)CCC3)CC2)C1 (centres undefined) : solubility kinetic is 160

----------
assay: Aqueous solubility of compound in PBS at pH 7.4; assay type: physicochemical
Give solubility kinetic for every item shown.

CCCCCCN(CC1CCOC2(CCN(C(=O)C3(c4ccccc4)CCCC3)CC2)C1)S(C)(=O)=O (centres undefined) : < 1 µM
O=C(N1CCC2(CC1)CC(CN1CCCS1(=O)=O)CCO2)C1(c2ccccc2)CCCC1 (centres undefined) : > 220 µM

Quick request: solubility kinetic for each listed item, please.
1. COc1ccccc1NC(=O)NCC1CCOC2(CCN(C(=O)C3(c4ccccc4)CCCC3)CC2)C1 (centres undefined)
2. CCCCCCOc1ccc(C(=O)NCC2CCOC3(CCN(C(=O)C4(c5ccccc5)CCCC4)CC3)C2)cc1 (centres undefined)

["< 10 µM", "< 1 µM"]

Hey, just so you know, these numbers are from ChEMBL document CHEMBL6178023.
